experiment: Solubility of compound in PBS buffer at pH 7 at 200 uM incubated for 24 hrs in shaker by UPLC-DAD analysis; format: physicochemical
property-label: solubility at 24 h, 200 µM (µM)

Known solubility at 24 h, 200 µM results, listed for orientation:
C[C@@H](NC(=O)c1ccc(F)cc1)c1ccc2c(n1)CCCN2c1ncccn1    5
C[C@@H](NC(=O)c1ccc(Cl)cc1)c1ccc2c(n1)CCCN2C(=O)c1cccc(Cl)c1    11
C[C@@H](NC(=O)c1ccc(F)cc1)c1ccc2c(n1)CCCN2c1ccccn1    151

A = C[C@@H](NC(=O)c1ccc(F)cc1)c1ccc2c(n1)CCCN2c1ccnc(C(F)(F)F)n1
B = C[C@@H](NC(=O)c1ccc(Cl)cc1)c1ccc2c(c1)CCCN2C(=O)c1cccc(Cl)c1
Given A and B , report the one with the higher recorded solubility at 24 h, 200 µM. Your choice should be expressed through its label. A
